Where do the numbers come from? From patent US20080200473A1.

% Inhibition Motor Activity values, listed per item
# Tested on: mice
# ASSAY EXPLANATION: In vivo predictive sedation-hypnosis test (inhibition of traveled distance); further: test concentration or dose not given here
# Design: species or system mouse
# STUDY CONDITIONS: male CD1 mice; single equimolecular intraperitoneal doses; traveled distance over 30 min after dosing (first 5 min discarded) versus control
ASSAY METRIC: % Inhibition Motor Activity (%)

>>> print(df.to_string())
                                   compound  unit_string  value_measured
0  Cc1ccc(-c2nc3ccc(C)cn3c2CNC(=O)/C=C/c2ccco2)cc1            %           61.89
1  Cc1ccc(-c2nc3ccc(C)cn3c2CN(C)C(=O)c2ccc3ccccc3n2)cc1            %           33.19
2  Cc1ccc(-c2nc3ccc(C)cn3c2CNC(=O)c2sccc2C)cc1            %           82.38
3  COc1ccc(C(=O)NCc2c(-c3ccc(C)cc3)nc3ccc(C)cn23)cc1            %           55.43
4  Cc1ccc(C(=O)N(C)Cc2c(-c3ccc(C)cc3)nc3ccc(C)cn23)cc1            %           44.36
